tested on: Salmonella typhimurium LT2 strain SL 696; assay: MIC of antibiotics in the presence of polymyxin nonapeptide, microtiter plate, S. typhimurium; assay type: cell-based; conditions: S. typhimurium strain SL 696; from Table 1
measurement_label: factor by which PMBN sensitized the strain to the antibiotic

IN: Consider the compound shown here: CO[C@@H]1[C@@H](OC(N)=O)[C@@H](O)[C@H](Oc2ccc3c(O)c(NC(=O)c4ccc(O)c(CC=C(C)C)c4)c(=O)oc3c2C)OC1(C)C What is its recorded factor by which PMBN sensitized the strain to the antibiotic?
OUT: ≥ 100 times

IN: If you can, please state the reported factor by which PMBN sensitized the strain to the antibiotic value of CC(=O)O[C@H]1C[C@@]2(C)[C@@H](C[C@@H](O)[C@H]3[C@@]4(C)CC[C@@H](O)[C@@H](C)[C@@H]4CC[C@@]32C)/C1=C(\CCC=C(C)C)C(=O)O .
OUT: ≥ 100 times

IN: Any idea what its factor by which PMBN sensitized the strain to the antibiotic is? The compound is CCOc1ccc2ccccc2c1C(=O)N[C@@H]1C(=O)N2[C@@H]1SC(C)(C)[C@@H]2C(=O)O
OUT: ≥ 30 times

IN: If you can, please state the reported factor by which PMBN sensitized the strain to the antibiotic value of CC1(C)S[C@@H]2[C@H](NC(=O)Cc3ccccc3)C(=O)N2[C@H]1C(=O)O .
OUT: 10 times

====

Assignment: determine reported MIC of the antibiotic for the given compounds.
system: E. coli strain IH 3080 (018:K1); experiment: MIC of antibiotics in the presence of polymyxin nonapeptide, microtiter plate, E. coli; format: cell-based; details: PMBN 0 μg/ml; E. coli IH 3080
Report the value in µg/mL with no unit label.

IN: MIC of the antibiotic lookup needed for CC(=O)O[C@H]1C[C@@]2(C)[C@@H](C[C@@H](O)[C@H]3[C@@]4(C)CC[C@@H](O)[C@@H](C)[C@@H]4CC[C@@]32C)/C1=C(\CCC=C(C)C)C(=O)O , thanks.
OUT: 100

IN: Fill in the blank: the reported MIC of the antibiotic of CCOC(=O)CCC(=O)O[C@H]1[C@H](O[C@@H]2[C@@H](C)[C@H](O[C@H]3C[C@@](C)(OC)[C@@H](O)[C@H](C)O3)[C@@H](C)C(=O)O[C@H](CC)[C@@](C)(O)[C@H](O)[C@@H](C)C(=O)[C@H](C)C[C@@]2(C)O)O[C@H](C)C[C@@H]1N(C)C [Erythromycin, erythromycin ethylsuccinate] is ____.
OUT: 30

IN: Request the reported MIC of the antibiotic associated with CO[C@@H]1[C@@H](OC(N)=O)[C@@H](O)[C@H](Oc2ccc3c(O)c(NC(=O)c4ccc(O)c(CC=C(C)C)c4)c(=O)oc3c2C)OC1(C)C
OUT: 30

IN: Sample CO[C@H]1/C=C/O[C@@]2(C)Oc3c(C)c(O)c4c(O)c(c(/C=N/N5CCN(C)CC5)c(O)c4c3C2=O)NC(=O)/C(C)=C\C=C\[C@H](C)[C@H](O)[C@@H](C)[C@@H](O)[C@@H](C)[C@H](OC(C)=O)[C@@H]1C — what was its MIC of the antibiotic?
OUT: 3

IN: What does the record list as MIC of the antibiotic for CC1(C)S[C@@H]2[C@H](NC(=O)Cc3ccccc3)C(=O)N2[C@H]1C(=O)O ?
OUT: 10

IN: Need MIC of the antibiotic of CCC[C@@H]1C[C@@H](C(=O)N[C@@H]([C@H]2O[C@H](SC)[C@H](O)[C@@H](O)[C@H]2O)[C@H](C)Cl)N(C)C1.Cl [Clindamycin, clindamycin hydrochloride] , thanks.
OUT: 30

====

tested on: Salmonella typhimurium LT2 strain SL 696; test: MIC of antibiotics in the presence of polymyxin nonapeptide, microtiter plate, S. typhimurium; type: cell-based; settings: S. typhimurium strain SL 696; from Table 1
For each entry below, report its factor by which PMBN sensitized the strain to the antibiotic value.

IN: Look up factor by which PMBN sensitized the strain to the antibiotic: Cc1onc(-c2ccccc2Cl)c1C(=O)N[C@@H]1C(=O)N2[C@@H]1SC(C)(C)[C@@H]2C(=O)O [Cloxacillin, cloxacillin]
OUT: ≥ 30 times

IN: Looking for the measured factor by which PMBN sensitized the strain to the antibiotic of CCOC(=O)CCC(=O)O[C@H]1[C@H](O[C@@H]2[C@@H](C)[C@H](O[C@H]3C[C@@](C)(OC)[C@@H](O)[C@H](C)O3)[C@@H](C)C(=O)O[C@H](CC)[C@@](C)(O)[C@H](O)[C@@H](C)C(=O)[C@H](C)C[C@@]2(C)O)O[C@H](C)C[C@@H]1N(C)C [Erythromycin, erythromycin ethylsuccinate] , can you help?
OUT: ≥ 30 times

====

tested on: E. coli strain IH 3080 (018:K1); assay: MIC of antibiotics in the presence of polymyxin nonapeptide, microtiter plate, E. coli; format: cell-based; conditions: PMBN 10 μg/ml; E. coli IH 3080
For each of the compounds below, state its MIC of the antibiotic.
Return type: number; implicit unit µg/mL.

IN: Given the compound CC(=O)O[C@H]1C[C@@]2(C)[C@@H](C[C@@H](O)[C@H]3[C@@]4(C)CC[C@@H](O)[C@@H](C)[C@@H]4CC[C@@]32C)/C1=C(\CCC=C(C)C)C(=O)O [Fusidic acid, fusidic acid] , what is its reported MIC of the antibiotic?
OUT: 1

IN: Fill in the blank: the reported MIC of the antibiotic of CCOC(=O)CCC(=O)O[C@H]1[C@H](O[C@@H]2[C@@H](C)[C@H](O[C@H]3C[C@@](C)(OC)[C@@H](O)[C@H](C)O3)[C@@H](C)C(=O)O[C@H](CC)[C@@](C)(O)[C@H](O)[C@@H](C)C(=O)[C@H](C)C[C@@]2(C)O)O[C@H](C)C[C@@H]1N(C)C [Erythromycin, erythromycin ethylsuccinate] is ____.
OUT: 1

IN: State the recorded MIC of the antibiotic for this entry: Cc1onc(-c2ccccc2Cl)c1C(=O)N[C@@H]1C(=O)N2[C@@H]1SC(C)(C)[C@@H]2C(=O)O [Cloxacillin, cloxacillin]
OUT: 30

IN: What value of measured MIC of the antibiotic is listed for CC1(C)S[C@@H]2[C@H](NC(=O)Cc3ccccc3)C(=O)N2[C@H]1C(=O)O [Benzylpenicillin, benzylpenicillin] ?
OUT: 3

IN: Look up MIC of the antibiotic: CCC[C@@H]1C[C@@H](C(=O)N[C@@H]([C@H]2O[C@H](SC)[C@H](O)[C@@H](O)[C@H]2O)[C@H](C)Cl)N(C)C1.Cl [Clindamycin, clindamycin hydrochloride]
OUT: 3

IN: I have this compound here, CO[C@H]1/C=C/O[C@@]2(C)Oc3c(C)c(O)c4c(O)c(c(/C=N/N5CCN(C)CC5)c(O)c4c3C2=O)NC(=O)/C(C)=C\C=C\[C@H](C)[C@H](O)[C@@H](C)[C@@H](O)[C@@H](C)[C@H](OC(C)=O)[C@@H]1C [Rifampicin] , and I need its recorded MIC of the antibiotic.
OUT: 0.03

IN: Which MIC of the antibiotic is reported for this compound? CO[C@@H]1[C@@H](OC(N)=O)[C@@H](O)[C@H](Oc2ccc3c(O)c(NC(=O)c4ccc(O)c(CC=C(C)C)c4)c(=O)oc3c2C)OC1(C)C [Novobiocin, novobiocin]
OUT: 3

====

Consider the following compounds; for each one, report its MIC of the antibiotic.
system: E. coli strain IH 3080 (018:K1); assay: MIC of antibiotics in the presence of polymyxin nonapeptide, microtiter plate, E. coli; assay type: cell-based; conditions: PMBN 3 μg/ml; E. coli IH 3080
Report the value in µg/mL with no unit label.

IN: // MIC of the antibiotic lookup, key: CC1(C)S[C@@H]2[C@H](NC(=O)Cc3ccccc3)C(=O)N2[C@H]1C(=O)O
OUT: 3

IN: Which measured MIC of the antibiotic value corresponds to CC(=O)O[C@H]1C[C@@]2(C)[C@@H](C[C@@H](O)[C@H]3[C@@]4(C)CC[C@@H](O)[C@@H](C)[C@@H]4CC[C@@]32C)/C1=C(\CCC=C(C)C)C(=O)O ?
OUT: 3

IN: Using the record for CCOC(=O)CCC(=O)O[C@H]1[C@H](O[C@@H]2[C@@H](C)[C@H](O[C@H]3C[C@@](C)(OC)[C@@H](O)[C@H](C)O3)[C@@H](C)C(=O)O[C@H](CC)[C@@](C)(O)[C@H](O)[C@@H](C)C(=O)[C@H](C)C[C@@]2(C)O)O[C@H](C)C[C@@H]1N(C)C [Erythromycin, erythromycin ethylsuccinate] , report its MIC of the antibiotic.
OUT: 1

IN: What measured MIC of the antibiotic goes with Cc1onc(-c2ccccc2Cl)c1C(=O)N[C@@H]1C(=O)N2[C@@H]1SC(C)(C)[C@@H]2C(=O)O ?
OUT: 30

IN: Entry under review: CO[C@H]1/C=C/O[C@@]2(C)Oc3c(C)c(O)c4c(O)c(c(/C=N/N5CCN(C)CC5)c(O)c4c3C2=O)NC(=O)/C(C)=C\C=C\[C@H](C)[C@H](O)[C@@H](C)[C@@H](O)[C@@H](C)[C@H](OC(C)=O)[C@@H]1C . Reported MIC of the antibiotic?
OUT: 0.03

IN: For CO[C@@H]1[C@@H](OC(N)=O)[C@@H](O)[C@H](Oc2ccc3c(O)c(NC(=O)c4ccc(O)c(CC=C(C)C)c4)c(=O)oc3c2C)OC1(C)C , what is its reported MIC of the antibiotic?
OUT: 3

IN: Reported MIC of the antibiotic, compound CCC[C@@H]1C[C@@H](C(=O)N[C@@H]([C@H]2O[C@H](SC)[C@H](O)[C@@H](O)[C@H]2O)[C@H](C)Cl)N(C)C1.Cl [Clindamycin, clindamycin hydrochloride] : ____
OUT: 3
